- target.or.test.system: BTK enzyme (recombinant full-length BTK, hBTK) (Homo sapiens (Human), UniProt Q06187)
- Sequence (Q06187 whole entry): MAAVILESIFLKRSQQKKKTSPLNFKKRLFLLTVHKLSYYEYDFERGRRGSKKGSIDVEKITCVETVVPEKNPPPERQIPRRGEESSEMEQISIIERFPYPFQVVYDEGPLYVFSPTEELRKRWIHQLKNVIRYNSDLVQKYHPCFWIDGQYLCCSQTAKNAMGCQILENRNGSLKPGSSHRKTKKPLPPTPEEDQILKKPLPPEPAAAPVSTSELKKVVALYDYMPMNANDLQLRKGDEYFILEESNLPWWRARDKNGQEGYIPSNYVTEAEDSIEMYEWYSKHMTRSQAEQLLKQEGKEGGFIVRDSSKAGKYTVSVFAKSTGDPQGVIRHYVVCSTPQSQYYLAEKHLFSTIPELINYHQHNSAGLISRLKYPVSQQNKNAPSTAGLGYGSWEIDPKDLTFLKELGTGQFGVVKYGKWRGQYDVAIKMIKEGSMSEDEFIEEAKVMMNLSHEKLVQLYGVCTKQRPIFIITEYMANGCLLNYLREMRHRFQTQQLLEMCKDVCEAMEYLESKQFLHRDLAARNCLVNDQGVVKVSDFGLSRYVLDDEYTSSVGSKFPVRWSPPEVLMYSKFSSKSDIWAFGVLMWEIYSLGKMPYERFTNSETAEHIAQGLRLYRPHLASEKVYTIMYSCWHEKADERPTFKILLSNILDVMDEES
- test.method.notes: BTK enzymatic activity LANCE TR-FRET assay
- experimental.setup: 50 pM hBTK, 25 μM ATP, 2 μM biotin-A5-peptide; compound range 1 μM to 0.017 nM; read-out: BTK binding IC50
property.name: IC50 (nM)

compound	measure.unit	IC50
C[C@](O)(c1ccc(-c2nc([C@@H]3CC[C@H]4CCCN4C3)n3ccnc(N)c23)cc1)c1cccc(C(F)(F)F)c1	nM	1000

a. Nc1nccn2c([C@@H]3CC[C@H]4CCC(=O)N4C3)nc(-c3ccc(C(O)c4cccc(C(F)(F)F)c4)cc3)c12 (stereo partly drawn) [Example 72]
b. C[C@@](O)(c1ccc(-c2nc([C@@H]3CC[C@H]4CCC(=O)N4C3)n3ccnc(N)c23)cc1)c1cccc(N2CCOCC2)c1
c. Cc1ccc(C(F)(F)F)cc1C(O)c1ccc(-c2nc([C@@H]3CC[C@H]4CCC(=O)N4C3)n3ccnc(N)c23)cc1 (stereo partly drawn) [Example 130]
d. Nc1nccn2c([C@@H]3CC[C@H]4CCC(=O)N4C3)nc(-c3ccc(C(O)(c4cccc(C(F)(F)F)c4)C4CC4)cc3)c12 (stereo partly drawn) [Example 87]
e. CC(O)(c1ccc(-c2nc([C@@H]3CC[C@H]4CCC(=O)N4C3)n3ccnc(N)c23)cc1)c1cccnc1 (stereo partly drawn)
Q) Place the items in sequence of falling IC50. Put the labels in the requested order and list them out.
A) b, e, d, a, c
